Molecular target: T1, human C1s (human, UniProt P09871 16-688)
T1 construct: also called hC1s; serum-derived human C1s (CompTech)
T1 sequence: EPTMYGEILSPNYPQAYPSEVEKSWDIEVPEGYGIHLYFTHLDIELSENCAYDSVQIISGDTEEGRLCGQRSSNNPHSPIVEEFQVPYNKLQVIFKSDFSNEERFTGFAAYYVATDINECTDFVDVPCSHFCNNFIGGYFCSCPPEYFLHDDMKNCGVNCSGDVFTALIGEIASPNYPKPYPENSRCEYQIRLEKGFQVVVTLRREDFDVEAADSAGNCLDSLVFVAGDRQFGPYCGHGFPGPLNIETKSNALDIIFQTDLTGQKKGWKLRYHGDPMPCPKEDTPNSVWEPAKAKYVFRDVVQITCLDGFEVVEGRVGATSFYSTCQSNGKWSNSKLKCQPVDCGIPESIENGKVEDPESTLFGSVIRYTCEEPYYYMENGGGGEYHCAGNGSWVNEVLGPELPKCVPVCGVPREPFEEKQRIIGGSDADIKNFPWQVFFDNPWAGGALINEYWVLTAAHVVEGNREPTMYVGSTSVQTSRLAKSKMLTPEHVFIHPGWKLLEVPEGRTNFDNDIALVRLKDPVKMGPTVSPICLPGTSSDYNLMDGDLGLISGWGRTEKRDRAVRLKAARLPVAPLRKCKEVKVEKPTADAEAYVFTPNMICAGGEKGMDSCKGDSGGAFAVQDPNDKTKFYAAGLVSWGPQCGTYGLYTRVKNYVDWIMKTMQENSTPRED
Test: SPR, Ab captured; pH 7.4, 1.2 mM Ca
The binders listed here are annotated with their Kd.
Form entry: value (nM) — number only.

Solved cases below.
C1_IPN92H0188-SG4GK/IPN93L0024-SK1 (antibody, human IgG4 S228P, kappa, name in Kabat numbering, V domains shown, also called IPN92H0188/IPN93L0024) VH: EVMLVESGGGLVKPGGSLRLSCAASGFTFSNYAMSWVRQAPGKGLEWVATISSGGSHTYYLDSVDGRFTISRDNSKDTLYLQMNSLRAEDTALYYCARLFTGHAMDYWGQGTLVTVSS VL: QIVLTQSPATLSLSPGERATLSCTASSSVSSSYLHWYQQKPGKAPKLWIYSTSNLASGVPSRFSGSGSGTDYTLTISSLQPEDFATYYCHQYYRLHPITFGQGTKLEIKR	2.03
C1_IPN92H0165-SG4GK/IPN93L0024-SK1 (antibody, human IgG4 S228P, kappa, name in Kabat numbering, V domains shown, also called IPN92H0165/IPN93L0024) VH: EVMLVESGGGLVKPGGSLRLSCAASGFTFSNYAMSWVRQAPGKGLEWVATISSGGSHTYYDDSVKGRFTISRDNSKDTLYLQMNSLRAEDTALYYCARLFTGHAMDYWGQGTLVTVSS VL: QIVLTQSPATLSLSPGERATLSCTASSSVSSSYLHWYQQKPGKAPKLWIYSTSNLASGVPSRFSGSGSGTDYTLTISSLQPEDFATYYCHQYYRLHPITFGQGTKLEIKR	1.77

Record C1_IPN92H0288-SG4GK/IPN93L0212-SK1 (antibody, human IgG4 S228P, kappa, name in Kabat numbering, V domains shown, VH = IPN009VH2 with Y59E/K64D/G98K/Y99H (Kabat); also called IPN92H0288/IPN93L0212) VH: EVMLVESGGGLVKPGGSLRLSCAASGFTFSNYAMSWVRQAPGKGLEWVATISSGGSHTYELDSVDGRFTISRDNSKDTLYLQMNSLRAEDTALYYCARLFTKHAMDYWGQGTLVTVSS VL: QIVLTQSPATLSLSPGERATLSCTASSEVSESRLHWYQQKPGKAPKLWIYSTSNLASGVPSRFSGSGSGTDYTLTISSLQPEDFATYYCHQYYRLHPITFGQGTKLEIKR . Reported Kd: 1.81

Data provenance: patent US20210032365A1
